- target.under.test: T1, rat α-CGRP (1-37) (rat, C-terminal amide; N-terminal biotin when captured on the SA chip)
- T1 construct: also called rat α (1-37); α-rat
- T1 peptide: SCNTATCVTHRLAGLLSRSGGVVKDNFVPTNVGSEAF
- assay.comment: Biacore, 37°C, Fab over CGRP on SA chip
- Description: Biacore assay for affinity determination. […] All Biacore assays were conducted in HBS-EP running buffer (10 mM HEPES pH 7.4, 150 mM NaCl, 3 mM EDTA, 0.005% v/v polysorbate P20). CGRP surfaces were prepared by diluting the N-biotinylated CGRP to a concentration of less than 0.001 mg/mL into HBS-EP buffer and injecting it across the SA sensor chip using variable contact times. […] Samples were typically injected for 1 minute at 100 μL/min and dissociation times of at least 10 minutes were allowed. […]
pKd: −log10 of the molar value.

binder: G1 variant M53 Fab (Fab, V domains shown, Fab; constant domains as m1; printed L561 read as L56I) VH: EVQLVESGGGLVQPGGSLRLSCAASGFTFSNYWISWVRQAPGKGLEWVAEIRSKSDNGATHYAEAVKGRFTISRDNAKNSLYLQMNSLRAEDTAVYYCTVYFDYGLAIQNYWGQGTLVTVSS VL: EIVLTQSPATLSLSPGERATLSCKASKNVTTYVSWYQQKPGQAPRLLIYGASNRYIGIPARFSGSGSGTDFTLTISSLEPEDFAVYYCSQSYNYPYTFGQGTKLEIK
pKd: 6.97
